Reference source: patent US20200140532A1

# SYSTEM UNDER TEST: T1, recombinant human Aggrecan G1-IGD-G2 (human, UniProt P16112 20-676)
# T1 construct: Only the G1-IGD-G2 region was used (R&D Systems 1220-PG is named for the immunogen); also called Hu G1-IGD-G2
# METHOD: periplasmic extract ELISA
OD 450 nm values by entry
Quick reminder: number only, in OD 450 nm, skip the unit.

>  <BINDER>
C0101PMP601D02 (VHH, Tested as E. coli periplasmic extract; not shown: FLAG3 and His6 tags (phagemid pAX212)) VHH: DVQLVESGGGLVQPGGSLRLSCAASGPTFSRYAMGWFRQAPGKEREFVAAITWSSGGRTYYADSVKGRFTISRDNSKNTVYLQMNSLRPEDTAVYYCAAARIPVRTYTSEWNYWGQGTLVTVSS

>  <OD 450 nm, OD 450 nm>
2.58

$$$$

C0101PMP604G01 (VHH, Tested as E. coli periplasmic extract; not shown: FLAG3 and His6 tags (phagemid pAX212)) VHH: DVQLVESGGGLVQPGGSLRLSCAASGRTFSSYTMGWFRQAPGKEREFVAAISWSGRTTYYADSVKGRFTISRDNSKNTVYLQMNSLRPEDTAVYYCAAYRRVRYTNLEVWDYWGQGTLVTVSS yielded OD 450 nm of 2.27

C0101PMP112A01 (VHH, Tested as E. coli periplasmic extract; not shown: FLAG3 and His6 tags (phagemid pAX212)) VHH: EVQLVESGGGLVQTGGSLRLSCVASGRAFSNYIMGWFRQAPGKERDFVAAINWNGVTTHYTDSVKGRFTISRDNAKSTSYLQMDSLKPDDTAVYFCAARGTVYSRTYGVSEEGYMYWGQGTQVTVSS yielded OD 450 nm of 2.5

C0101PMP604B05 (VHH, Tested as E. coli periplasmic extract; not shown: FLAG3 and His6 tags (phagemid pAX212)) VHH: DVQLVESGGGLVQPGGSLRLSCVASGRTFSIYTMAWFRQAPGKEREFVAAISWSSGRTYYADSVKGRFTISRDNSKNTVYLQMNSLRPEDTAVYYCTAYTGPRSGYDYWGQGTLVTVSS yielded OD 450 nm of 2.48

C0101PMP601E08 (VHH, Tested as E. coli periplasmic extract; not shown: FLAG3 and His6 tags (phagemid pAX212)) VHH: DVQLVESGGGLVQPGGSLRLSCTASGRTFSSYAVGWFRQAPGKEREFVAAISRSGRSTYYADSVKGRFTISRDNSKNTVYLQMNSLRPEDTAVYYCAAGLSYYSPHAYYDYWGQGTLVTVSS yielded OD 450 nm of 2.28

C0101PMP115B08 (VHH, Tested as E. coli periplasmic extract; not shown: FLAG3 and His6 tags (phagemid pAX212)) VHH: KVQLVESGGGLVQPGGSLRLSCAASGFTFSMYAMKWVRQAPGKGLEWVSGINSSGGRTNYAGSVKGRFTISRDNAKNTLYLQMNSLKPEDTAVYYCATDFLGGRNSRGQGTQVTVSS yielded OD 450 nm of 1.65
